The entries below come with measured TC values attached.
Test system: apoE−/− mice
Test: apoE−/− mouse atherosclerosis model, high-fat diet 10 weeks
Assay type: in vivo
Settings: serum, high-fat diet 10 weeks, intragastric 150 mg/kg twice a day
// return numeric value only (unit: mg/dL, not printed)

- compound: "COc1cc(OC)c2c(=O)[nH]c(-c3cc(C)c(OCCO)c(C)c3)nc2c1 [Compound H130, reference compound]"
  target: "apoE−/− mice"
  reading: 1005
- compound: "COc1cc(OC)c2c(=O)[nH]c(-c3cc(C)c(OCCO[N+](=O)[O-])c(C)c3)nc2c1"
  target: "apoE−/− mice"
  reading: 985
- compound: "COc1cc(OC)c2c(=O)[nH]c(-c3cc(C)c(OCCOC(=O)CCC(=O)ONS(=O)(=O)c4cccc(S(C)(=O)=O)c4)c(C)c3)nc2c1"
  target: "apoE−/− mice"
  reading: 1123

Let us examine a further case.
Q: Look at this compound and give its reported TC. COc1cc(OC)c2c(=O)[nH]c(-c3cc(C)c(OCCOC(=O)OC4COC5C(O[N+](=O)[O-])COC45)c(C)c3)nc2c1 (stereo not shown)
Result: 994

====

Assay: Release of nitric oxide in vitro (Griess reagent, nitrite)
Details: 10^−4 mol/L tested substance, phosphate buffer pH 7.4, cysteine 5 mmol/L, 37° C., 1 h; as nitrite
Assign Fulfilled to entries whose Amount of Released No meets or exceeds 1 µM; assign Not fulfilled to the rest.

Check out these entries, answers already filled in.
- compound: "COc1cc(OC)c2c(=O)[nH]c(-c3cc(C)c(OCCOC(=O)CCC(CO[N+](=O)[O-])O[N+](=O)[O-])c(C)c3)nc2c1 (stereo not drawn)"
  classLabel: "Not fulfilled"
- compound: "COc1cc(OC)c2c(=O)[nH]c(-c3cc(C)c(OCCOC(=O)CC(N)C(=O)OCC(CO[N+](=O)[O-])O[N+](=O)[O-])c(C)c3)nc2c1.Cl (stereo not drawn)"
  classLabel: "Fulfilled"
- compound: "COc1cc(OC)c2c(=O)[nH]c(-c3cc(C)c(OCCO[N+](=O)[O-])c(C)c3)nc2c1"
  classLabel: "Fulfilled"

Turning now to a further record.
Q: Textbook exercise: given the entry COc1cc(OC)c2c(=O)[nH]c(-c3cc(C)c(OCCOC(=O)CCC(=O)N4CCN(CCO[N+](=O)[O-])CC4)c(C)c3)nc2c1 , state whether its Amount of Released No is greater than or equal to 1 µM.
Result: Fulfilled

====

Experiment: Plasma stability in vitro, human plasma
Details: human plasma, 2 μM, 37° C., 60 min; in % (unit assumed)
The entries below come with measured Content of Tested Substance (n = 2) values attached.
When you answer, write just the number.

Illustrative cases are given below, each with its answer.
- compound: "COc1cc(OC)c2c(=O)[nH]c(-c3cc(C)c(OCCOC(=O)ONS(=O)(=O)c4ccc(C)s4)c(C)c3)nc2c1"
  Content of Tested Substance (n = 2): 83.3
- compound: "COc1cc(OC)c2c(=O)[nH]c(-c3cc(C)c(OCCOC(=O)ONS(=O)(=O)c4ccc(C)o4)c(C)c3)nc2c1"
  Content of Tested Substance (n = 2): 81.1
- compound: "COc1cc(OC)c2c(=O)[nH]c(-c3cc(C)c(OCCOC(=O)CCC(CO[N+](=O)[O-])O[N+](=O)[O-])c(C)c3)nc2c1 (centres unmarked)"
  Content of Tested Substance (n = 2): 93.8
- compound: "COc1cc(OC)c2c(=O)[nH]c(-c3cc(C)c(OCCOC(=O)c4cccc(CO[N+](=O)[O-])c4)c(C)c3)nc2c1"
  Content of Tested Substance (n = 2): 95.0

Q: Look at this compound and give its reported Content of Tested Substance (n = 2). COc1cc(OC)c2c(=O)[nH]c(-c3cc(C)c(OCCO[N+](=O)[O-])c(C)c3)nc2c1
Result: 97.5

====

The entries below come with measured Content of Tested Substance (n = 2) values attached.
Assay: Plasma stability in vitro, mouse plasma
Conditions: CD-1 mice plasma, 2 μM, 37° C., 30 min; in % (unit assumed)
When you answer, write just the number.

- compound: "COc1cc(OC)c2c(=O)[nH]c(-c3cc(C)c(OCCOC(=O)ONS(=O)(=O)c4ccc(C)s4)c(C)c3)nc2c1"
  reading: 0.0
- compound: "COc1cc(OC)c2c(=O)[nH]c(-c3cc(C)c(OCCOC(=O)ONS(=O)(=O)c4ccc(C)o4)c(C)c3)nc2c1"
  reading: 0.0
- compound: "COc1cc(OC)c2c(=O)[nH]c(-c3cc(C)c(OCCO[N+](=O)[O-])c(C)c3)nc2c1"
  reading: 94.8
- compound: "COc1cc(OC)c2c(=O)[nH]c(-c3cc(C)c(OCCOC(=O)CCC(CO[N+](=O)[O-])O[N+](=O)[O-])c(C)c3)nc2c1 (centres unmarked)"
  reading: 0.3

Q: Look at this compound and give its reported Content of Tested Substance (n = 2). COc1cc(OC)c2c(=O)[nH]c(-c3cc(C)c(OCCOC(=O)c4cccc(CO[N+](=O)[O-])c4)c(C)c3)nc2c1
Result: 1.3

====

Test system: apoE−/− mice
Assay: apoE−/− mouse atherosclerosis model, high-fat diet 10 weeks
Format: in vivo
Conditions: blank administration group = 100, 150 mg/kg twice a day, 10 weeks
Protocol: Experimental method: 36 eight-week-old male apoE-/- mice were selected and randomly divided into a blank administration group, an […] administration group, an […] administration group, an […] administration group, an […] administration group, and an […] administration group, 6 mice per group. […] The ApoA1 expression level was detected with an ApoA1 kit. The content of NO in the serum of the mice was determined with a total NO test kit (Beyotime). […]
The entries below come with measured ApoA1 values attached.
Number first, unit second.

Q: Look at this molecule and give its reported ApoA1. COc1cc(OC)c2c(=O)[nH]c(-c3cc(C)c(OCCO[N+](=O)[O-])c(C)c3)nc2c1
Result: 126%

Q: Look at this molecule and give its reported ApoA1. COc1cc(OC)c2c(=O)[nH]c(-c3cc(C)c(OCCOC(=O)OC4COC5C(O[N+](=O)[O-])COC45)c(C)c3)nc2c1 (stereo not shown)
Result: 114%

Q: Look at this molecule and give its reported ApoA1. COc1cc(OC)c2c(=O)[nH]c(-c3cc(C)c(OCCO)c(C)c3)nc2c1 [Compound H130, reference compound]
Result: 130%

Q: Look at this molecule and give its reported ApoA1. COc1cc(OC)c2c(=O)[nH]c(-c3cc(C)c(OCCOC(=O)CCC(=O)ONS(=O)(=O)c4cccc(S(C)(=O)=O)c4)c(C)c3)nc2c1
Result: 128%

====

The entries below come with measured Amount of Released No values attached.
Assay: Release of nitric oxide in vitro (Griess reagent, nitrite)
Conditions: 10^−4 mol/L tested substance, phosphate buffer pH 7.4, cysteine 5 mmol/L, 37° C., 1 h; as nitrite
// return numeric value only (unit: µM, not printed)

- molecule: "COc1cc(OC)c2c(=O)[nH]c(-c3cc(C)c(OCCOC(=O)OC4COC5C(O[N+](=O)[O-])COC45)c(C)c3)nc2c1 (centres unmarked) [Compound H119]"
  reading: 1.24
- molecule: "COc1cc(OC)c2c(=O)[nH]c(-c3cc(C)c(OCCOC(=O)c4cccc(CO[N+](=O)[O-])c4)c(C)c3)nc2c1 [Compound H102]"
  reading: -0.55
- molecule: "COc1cc(OC)c2c(=O)[nH]c(-c3cc(C)c(OCCOC(=O)NC4COC5C(O[N+](=O)[O-])COC45)c(C)c3)nc2c1 (centres unmarked) [Compound H120]"
  reading: 1.32

Q: Look at this molecule and give its reported Amount of Released No. COc1cc(OC)c2c(=O)[nH]c(-c3cc(C)c(OCCOC(=O)CCC(=O)OCC(CO[N+](=O)[O-])(CO[N+](=O)[O-])CO[N+](=O)[O-])c(C)c3)nc2c1 [Compound H106]
Result: 2.56

Q: Look at this molecule and give its reported Amount of Released No. COc1cc(OC)c2c(=O)[nH]c(-c3cc(C)c(OCCO)c(C)c3)nc2c1 [Compound H130, reference compound]
Result: -1.03

Source: patent US10456405B2
